Test system: RARb:RXRa (NR concentration 270 nM, RXRa partner concentration 90 nM)
assay overview: PBM binding z-score (relative to random genomic background probes); higher = stronger binding; sequences stand for … in GC…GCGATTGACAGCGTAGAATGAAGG
measured metric: PBM binding z-score
Numbers only.

# example entries with known answers
1. AGAATGAGGTTATTAAGATCTGGGAATTGCGGTC : 1.29
2. AGTATTAGTTGAGACGAGGGCAACCGATAGGTTG : 1.2
3. TCTAGTTGGTCACGAAGGTCACACACGACGGGTA : 4.01
4. ACTAGCAGGCCAAGTTTAGGTCACTCAAACAAAG : 2.33
5. CCCTACGGGTCACTCCAGGTTATAGCATCGGAGT : 3.66

Hi, could you look up PBM binding z-score for each item in my list?
1. CTACCAAGGTGAACAAGGACGTTGATTACTATTC
2. CAAACTAGGCCACAGAGGTCAAAGTCCGTGCGTA
3. CCTACTGGGCCACGAAAGGTCAATGATTCAGTGA
4. GCTAGCAGCCCATTTGGGTCACTCAATGACGGGC
5. CCTACTGGGCCAAGGACATTGATCAGTCAAAGCA
6. CAGCCTAGGTCAGGGCCAGTATGGGAGGAACGTT
7. TCTGCAAGGTCAGTTGGTCAGCTAACGAGCTGCC

Result:
1.55
4.29
4.09
0.893
0.145
3.43
4.43

For every listed record, write down its PBM binding z-score.
1. CTCGAAAGGTCGGTTGAGGTGAGTATTCGGATAA
2. TCAGACAGGTGAAGGTAACCCAGGTACGCAGTCG
3. TCTTGTAGATCAACAGGAGGTTGAGAAAGATCGA
4. AGAACGAGGGCACGCTGAGTTGAAAGCAGAGTAG
5. AGTCAAGGTTCACTAGGTAACGTAAGATTCAGCT
6. GCTATTAGTTGAAAGGGCATCCGAATGATTCTCG
7. AGTCAAAGTTCATCTAGGTAAGGTAAGATATGCT

Result:
3.25
1.44
-0.147
2.51
2.75
1.65
4.91
